# reported DC50; entries follow
Molecular target: SMARCA2 (Homo sapiens (Human))
Sequence (P51531 whole entry): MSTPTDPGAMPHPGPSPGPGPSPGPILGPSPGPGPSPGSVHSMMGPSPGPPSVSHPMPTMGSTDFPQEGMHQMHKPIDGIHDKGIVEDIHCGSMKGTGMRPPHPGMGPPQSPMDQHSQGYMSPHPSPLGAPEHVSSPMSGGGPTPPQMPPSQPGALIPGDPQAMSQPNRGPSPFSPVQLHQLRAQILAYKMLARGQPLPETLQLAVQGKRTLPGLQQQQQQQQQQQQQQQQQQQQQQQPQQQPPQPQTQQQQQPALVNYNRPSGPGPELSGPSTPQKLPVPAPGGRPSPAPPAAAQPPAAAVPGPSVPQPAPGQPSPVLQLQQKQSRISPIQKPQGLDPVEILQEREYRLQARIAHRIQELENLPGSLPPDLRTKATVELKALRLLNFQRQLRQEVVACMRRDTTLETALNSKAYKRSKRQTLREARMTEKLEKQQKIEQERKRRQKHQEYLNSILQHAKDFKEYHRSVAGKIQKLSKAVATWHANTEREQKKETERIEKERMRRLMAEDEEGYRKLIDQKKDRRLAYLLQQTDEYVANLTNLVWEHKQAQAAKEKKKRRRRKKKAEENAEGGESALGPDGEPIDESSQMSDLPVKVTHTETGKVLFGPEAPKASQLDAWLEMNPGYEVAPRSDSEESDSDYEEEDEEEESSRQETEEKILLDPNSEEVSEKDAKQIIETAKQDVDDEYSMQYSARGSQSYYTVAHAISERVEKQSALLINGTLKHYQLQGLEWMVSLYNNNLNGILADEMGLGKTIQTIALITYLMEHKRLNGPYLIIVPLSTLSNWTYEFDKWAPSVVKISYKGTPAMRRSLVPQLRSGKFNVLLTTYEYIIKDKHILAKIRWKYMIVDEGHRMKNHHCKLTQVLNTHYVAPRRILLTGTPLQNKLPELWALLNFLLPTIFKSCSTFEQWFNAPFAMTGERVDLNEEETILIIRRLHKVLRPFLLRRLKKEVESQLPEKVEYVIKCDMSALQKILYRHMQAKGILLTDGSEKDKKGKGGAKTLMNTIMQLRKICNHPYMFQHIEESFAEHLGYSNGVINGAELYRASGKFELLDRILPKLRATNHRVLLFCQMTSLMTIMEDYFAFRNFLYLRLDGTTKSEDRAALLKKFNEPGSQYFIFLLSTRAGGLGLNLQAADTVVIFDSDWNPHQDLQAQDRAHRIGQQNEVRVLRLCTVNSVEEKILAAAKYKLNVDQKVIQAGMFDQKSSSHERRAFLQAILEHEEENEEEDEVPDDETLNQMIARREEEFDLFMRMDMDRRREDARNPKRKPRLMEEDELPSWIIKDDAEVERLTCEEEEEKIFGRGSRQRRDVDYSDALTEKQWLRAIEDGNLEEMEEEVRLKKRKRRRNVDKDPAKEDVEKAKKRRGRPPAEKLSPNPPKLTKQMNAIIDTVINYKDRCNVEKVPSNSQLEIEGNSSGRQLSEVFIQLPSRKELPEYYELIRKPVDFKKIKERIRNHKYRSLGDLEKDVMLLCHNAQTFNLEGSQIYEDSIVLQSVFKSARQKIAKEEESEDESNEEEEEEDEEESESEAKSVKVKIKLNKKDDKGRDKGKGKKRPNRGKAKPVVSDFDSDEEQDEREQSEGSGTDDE
Assay: SMARCA2 HiBiT degradation assay in HEK293T cells
Assay type: cell-based
Settings: 293T HiBiT assay, 24 h; read-out: DC50 (SM2-293T) SMARCA2 degradation potency

**Query** Tell me DC50 of Cc1ncsc1-c1ccc([C@H](C)NC(=O)[C@@H]2C[C@@H](O)CN2C(=O)[C@@H](c2cc(CCN3CCC(N4CCN5c6cc(-c7ccccc7O)nnc6NC[C@H]5C4)CC3)no2)C(C)C)cc1 [Example 91] when tested on SMARCA2 (Homo sapiens (Human)).
**Result** < 100 nM

**Query** Tell me DC50 of Cc1ncsc1-c1ccc([C@H](C)NC(=O)[C@@H]2C[C@@H](O)CN2C(=O)[C@@H](c2cc(OCCN3CCC(CN4CCN5c6cc(-c7ccccc7O)nnc6NC[C@H]5C4)CC3)no2)C(C)C)c(F)c1 [Example 36] when tested on SMARCA2 (Homo sapiens (Human)).
**Result** < 100 nM

**Query** Tell me DC50 of Cc1ncsc1-c1ccc([C@H](C)NC(=O)[C@@H]2C[C@@H](O)CN2C(=O)[C@@H](NC(=O)COCCN2CCN3c4cc(-c5ccccc5O)nnc4NCC3C2)C(C)(C)C)cc1 (stereo partly drawn) [Example 65] when tested on SMARCA2 (Homo sapiens (Human)).
**Result** 100 to 1000 nM

**Query** Tell me DC50 of Cc1ncsc1-c1ccc([C@H](C)NC(=O)[C@@H]2C[C@@H](O)CN2C(=O)[C@@H](NC(=O)C2CN(CCCN3CCN4c5cc(-c6ccccc6O)nnc5NCC4C3)C2)C(C)(C)C)cc1 (stereo partly drawn) [Example 82] when tested on SMARCA2 (Homo sapiens (Human)).
**Result** < 100 nM

**Query** Tell me DC50 of Cc1ncsc1-c1ccc([C@H](C)NC(=O)[C@@H]2C[C@@H](O)CN2C(=O)[C@@H](c2cc(OCCN3C4CCC3CC(CN3CCN5c6cc(-c7ccccc7O)nnc6NCC5C3)C4)no2)C(C)C)cc1 (stereo partly drawn) [Example 78] when tested on SMARCA2 (Homo sapiens (Human)).
**Result** < 100 nM

**Query** Tell me DC50 of COc1cc(-c2scnc2C)ccc1[C@H](C)NC(=O)[C@@H]1C[C@@H](O)CN1C(=O)[C@@H](c1cc(OCCN2CCC(CN3CCN4c5cc(-c6ccccc6O)nnc5NC[C@H]4C3)CC2)no1)C(C)C [Example 40] when tested on SMARCA2 (Homo sapiens (Human)).
**Result** < 100 nM

**Query** Tell me DC50 of Cc1ncsc1-c1ccc([C@H](C)NC(=O)[C@@H]2C[C@@H](O)CN2C(=O)[C@@H](NC(=O)OCCN2CCC(N3CCN4c5cc(-c6ccccc6O)nnc5NC[C@H]4C3)CC2)C(C)(C)C)cc1 [Example 80] when tested on SMARCA2 (Homo sapiens (Human)).
**Result** < 100 nM

**Query** Tell me DC50 of Cc1ncsc1-c1ccc([C@H](C)NC(=O)[C@@H]2C[C@@H](O)CN2C(=O)[C@@H](c2cc(OCCN3CCN(CCN4CCC(N5CCN6c7cc(-c8ccccc8O)nnc7NC[C@H]6C5)CC4)CC3)no2)C(C)C)cc1 [Example 21] when tested on SMARCA2 (Homo sapiens (Human)).
**Result** < 100 nM

**Query** Tell me DC50 of Cc1ncsc1-c1ccc([C@H](C)NC(=O)[C@@H]2C[C@@H](OC(=O)C(C)C)CN2C(=O)[C@@H](c2cc(OCCN3CCC(CN4CCN5c6cc(-c7ccccc7O)nnc6NC[C@H]5C4)CC3)no2)C(C)C)cc1 [Example 52] when tested on SMARCA2 (Homo sapiens (Human)).
**Result** < 100 nM

====

Biological target: SMARCA4 (Homo sapiens (Human), UniProt P51532)
Sequence (P51532 whole entry): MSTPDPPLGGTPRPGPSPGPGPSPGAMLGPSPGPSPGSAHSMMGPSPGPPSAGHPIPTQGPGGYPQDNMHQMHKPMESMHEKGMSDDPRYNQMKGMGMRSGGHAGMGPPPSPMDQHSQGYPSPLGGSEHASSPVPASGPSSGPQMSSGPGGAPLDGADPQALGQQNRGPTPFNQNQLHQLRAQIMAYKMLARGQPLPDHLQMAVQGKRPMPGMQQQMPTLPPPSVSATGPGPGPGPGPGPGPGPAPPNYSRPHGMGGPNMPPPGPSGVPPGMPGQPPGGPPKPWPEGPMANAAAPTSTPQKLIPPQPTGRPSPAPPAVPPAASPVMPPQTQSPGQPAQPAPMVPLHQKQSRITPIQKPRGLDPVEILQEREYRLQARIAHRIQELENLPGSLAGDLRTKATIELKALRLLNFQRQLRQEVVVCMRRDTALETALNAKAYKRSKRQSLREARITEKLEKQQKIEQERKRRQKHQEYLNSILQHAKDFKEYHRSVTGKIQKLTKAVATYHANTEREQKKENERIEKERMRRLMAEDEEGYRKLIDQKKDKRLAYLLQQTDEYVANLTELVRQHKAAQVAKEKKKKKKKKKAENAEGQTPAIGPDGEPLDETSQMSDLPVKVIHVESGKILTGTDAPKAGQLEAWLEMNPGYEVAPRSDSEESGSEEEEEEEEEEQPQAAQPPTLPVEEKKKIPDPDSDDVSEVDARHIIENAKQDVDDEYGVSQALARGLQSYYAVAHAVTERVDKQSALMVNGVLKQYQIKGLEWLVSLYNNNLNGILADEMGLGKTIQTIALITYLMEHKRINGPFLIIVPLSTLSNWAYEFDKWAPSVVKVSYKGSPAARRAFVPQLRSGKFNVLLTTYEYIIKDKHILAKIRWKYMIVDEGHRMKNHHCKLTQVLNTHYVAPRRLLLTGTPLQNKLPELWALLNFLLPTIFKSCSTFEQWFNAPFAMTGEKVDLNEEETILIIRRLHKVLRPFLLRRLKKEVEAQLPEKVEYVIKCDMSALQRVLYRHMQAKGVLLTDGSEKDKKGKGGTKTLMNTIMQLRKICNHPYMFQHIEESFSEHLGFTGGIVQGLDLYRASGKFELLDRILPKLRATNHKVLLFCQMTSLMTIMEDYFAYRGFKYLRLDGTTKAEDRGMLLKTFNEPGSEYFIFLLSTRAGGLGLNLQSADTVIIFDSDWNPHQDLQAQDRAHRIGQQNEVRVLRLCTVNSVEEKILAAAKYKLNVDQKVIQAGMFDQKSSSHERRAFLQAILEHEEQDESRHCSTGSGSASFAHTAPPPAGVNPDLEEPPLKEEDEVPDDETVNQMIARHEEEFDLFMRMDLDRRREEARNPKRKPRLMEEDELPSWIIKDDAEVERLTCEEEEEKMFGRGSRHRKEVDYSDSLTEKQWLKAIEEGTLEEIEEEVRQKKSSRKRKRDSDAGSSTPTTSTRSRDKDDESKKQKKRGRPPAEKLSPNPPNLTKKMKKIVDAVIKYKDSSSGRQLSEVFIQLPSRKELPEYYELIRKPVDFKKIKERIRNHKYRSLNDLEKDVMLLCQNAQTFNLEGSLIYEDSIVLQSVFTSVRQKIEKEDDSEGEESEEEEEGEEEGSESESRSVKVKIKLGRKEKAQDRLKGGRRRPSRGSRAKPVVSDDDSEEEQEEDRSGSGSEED
Test: In Cell Western SMARCA4 degradation in NCIH520 cells
Assay type: cell-based
Conditions: H520 cells, overnight; read-out: DC50 (SM4_H520) SMARCA4 degradation potency
# reported DC50; entries follow

Examples with their reported DC50 follow.
{"columns": ["COMPOUND", "MEASURED_PARAMETER", "MEASUREMENT"],
 "data": [
  ["Cc1ncsc1-c1ccc([C@H](C)NC(=O)[C@@H]2C[C@@H](O)CN2C(=O)[C@@H](NC(=O)CN2CCN3c4cc(-c5ccccc5O)nnc4NCC3C2)C(C)(C)C)cc1 (single isomer, unassigned) [Example 1a]", "DC50", "100 to 1000 nM"],
  ["Cc1ncsc1-c1ccc([C@H](C)NC(=O)[C@@H]2C[C@@H](O)CN2C(=O)C(c2cc(OCCN3CCC(CN4CCN5c6cc(-c7ccccc7O)nnc6NCC5C4)CC3)no2)C(C)C)cc1 (stereo in doubt)", "DC50", "< 100 nM"],
  ["Cc1ncsc1-c1ccc([C@H](C)NC(=O)[C@@H]2C[C@@H](O)CN2C(=O)[C@@H](NC(=O)CN2CCC(CN3CCN4c5cc(-c6ccccc6O)nnc5NCC4C3)CC2)C(C)(C)C)cc1 (stereo partly shown)", "DC50", "100 to 1000 nM"],
  ["Cc1scnc1-c1ccc(CNC(=O)[C@@H]2C[C@@H](O)CN2C(=O)[C@@H](NC(=O)CN2CCN3c4cc(-c5ccccc5O)nnc4NCC3C2)C(C)(C)C)cc1 (single isomer, unassigned) [Example 2b]", "DC50", "≥ 10000 nM"],
  ["Cc1ncsc1-c1ccc([C@H](C)NC(=O)[C@@H]2C[C@@H](O)CN2C(=O)[C@@H](c2cc(OCCN3CCN4c5cc(-c6ccccc6O)nnc5NCC4C3)no2)C(C)C)cc1 (stereo partly shown)", "DC50", "100 to 1000 nM"]
]}

**Query** Please indicate DC50 recorded for Cc1ncsc1-c1ccc([C@H](C)NC(=O)[C@@H]2C[C@@H](O)CN2C(=O)[C@@H](NC(=O)CN2CCN3c4cc(-c5ccccc5O)nnc4NCC3C2)C(C)(C)C)cc1 (single isomer, unassigned) [Example 1b]
**Result** 100 to 1000 nM

**Query** Please indicate DC50 recorded for Cc1scnc1-c1ccc(CNC(=O)[C@@H]2C[C@@H](O)CN2C(=O)[C@@H](NC(=O)CN2CCN3c4cc(-c5ccccc5O)nnc4NCC3C2)C(C)(C)C)cc1 (single isomer, unassigned) [Example 2a]
**Result** 1000 to 10000 nM

====

# reported Dmax; entries follow
Biological target: SMARCA2 (Homo sapiens (Human))
Experiment: SMARCA2 HiBiT degradation assay in HEK293T cells
Format: cell-based
Conditions: HEK-293T; 293T HiBiT assay, 24 h; read-out: Dmax % (SM2-293T) maximum SMARCA2 degradation within the concentrations tested
Procedure: HiBiT peptide knock-in of SMARCA2 in LgBiT expressing HEK293T cells was performed by CRISPR-mediated tagging system as described Promega. The homozygous HiBiT knock-in on c-terminus SMARCA2 was confirmed by sanger sequence. […] After 24 h incubation, 25 uL/well of Nano-Glo HiBiT Lytic detection buffer (Promega: N3050) was added to the wells and incubate for 10 min on a shaker, centrifuged for 5 min, and then RLU was detected on a microplate reader (Envision, PerkinElmer). […]

Examples with their reported Dmax follow.
{"columns": ["COMPOUND", "MEASURED_PARAMETER", "MEASUREMENT"],
 "data": [
  ["Cc1ncsc1-c1ccc([C@H](C)NC(=O)[C@@H]2C[C@@H](O)CN2C(=O)[C@@H](c2cc(OC(C)CN3CCCC(CN4CCN5c6cc(-c7ccccc7O)nnc6NC[C@H]5C4)CC3)no2)C(C)C)cc1 (stereo partly drawn)", "Dmax", "> 75%"],
  ["Cc1ncsc1-c1ccc([C@H](C)NC(=O)[C@@H]2C[C@@H](O)CN2C(=O)[C@@H](c2cc(OCCN3CCC(N4CCN5c6cc(-c7ccccc7O)nnc6NC[C@H]5C4)C3)no2)C(C)C)cc1 (single isomer, unassigned)", "Dmax", "> 75%"]
]}

Then this compound:
**Query** Tell me Dmax of Cc1ncsc1-c1ccc([C@H](C)NC(=O)[C@@H]2C[C@@H](O)CN2C(=O)[C@@H](c2cc(OC3CCN(CCCN4CCN5c6cc(-c7ccccc7O)nnc6NC[C@H]5C4)C3)no2)C(C)C)cc1 (stereo partly drawn) when tested on SMARCA2 (Homo sapiens (Human)).
**Result** > 75%

====

Molecular target: SMARCA4 (Homo sapiens (Human), UniProt P51532)
Assay: SMARCA4 HiBiT degradation assay in HeLa cells
Assay type: cell-based
Settings: 18 hours, read-out: DC50 (SM4-HeLa) SMARCA4 degradation potency
MEASURED_PARAMETER: DC50

Examples with their reported DC50 follow.
{"columns": ["MOLECULE", "DC50"],
 "data": [
  ["Cc1ncsc1-c1ccc([C@H](C)NC(=O)[C@@H]2C[C@@H](O)CN2C(=O)C(c2cc(O[C@H](C)C(=O)N3CCC(N4CCN5c6cc(-c7ccccc7O)nnc6NC[C@H]5C4)C3)no2)C(C)C)cc1 (stereo partly drawn) [Example 28]", "100 to 1000 nM"],
  ["Cc1ncsc1-c1ccc([C@H](C)NC(=O)[C@@H]2C[C@@H](O)CN2C(=O)[C@@H](c2cc(CCCN(C)CCN3CCN4c5cc(-c6ccccc6O)nnc5NC[C@H]4C3)no2)C(C)C)cc1", "≥ 10000 nM"],
  ["Cc1ncsc1-c1ccc([C@H](C)NC(=O)[C@@H]2C[C@@H](O)CN2C(=O)[C@@H](c2cc(OCCN3CCC(N4CCN5c6cc(-c7ccccc7O)nnc6NC[C@H]5C4)C(O)C3)no2)C(C)C)cc1 (stereo partly drawn)", "< 100 nM"]
]}

**Query** Please indicate DC50 recorded for "Cc1ncsc1-c1ccc([C@H](C)NC(=O)[C@@H]2C[C@@H](O)CN2C(=O)[C@@H](c2cc(OCCN3CCC(CN4CCN5c6cc(-c7ccccc7O)nnc6NC[C@H]5C4)CC3)no2)C(C)C)cc1"
**Result** < 100 nM

**Query** Please indicate DC50 recorded for Cc1ncsc1-c1ccc([C@H](C)NC(=O)[C@@H]2C[C@@H](O)CN2C(=O)[C@@H](c2cc(OCCN3CCC(N4CCN5c6cc(-c7ccccc7O)nnc6NCC5(C)C4)C3)no2)C(C)C)cc1 (stereo partly drawn) [Example 71]
**Result** < 100 nM

**Query** Please indicate DC50 recorded for Cc1ncsc1-c1ccc([C@H](C)NC(=O)[C@@H]2C[C@@H](O)CN2C(=O)[C@@H](c2cc(O[C@@H](C)CN3CCC(N4CCN5c6cc(-c7ccccc7O)nnc6NC[C@H]5C4)C3)no2)C(C)C)cc1 (stereo partly drawn) [Example 49]
**Result** < 100 nM

The values you see were collected from patent US20240018158A1.
